System: HEPG2
measurement description: Euclidean distance of Cell Painting phenotypic profile (signed KS, 77 features) to DMSO centroid (dimensionless distance); 5 or 10 uM (library dependent); higher = stronger phenotypic change vs DMSO (phenoactivity)
test context: 48 h
Recorded Euclidean distance by entry
Format: numeric value only, no unit, no commentary.

> print(dat)
                                   compound  study.target  test.result
1       CC(C)Oc1ccc2c(=O)c(-c3ccccc3)coc2c1         HEPG2        0.723
2  COCCCOc1cc(C[C@@H](C[C@H](N)[C@@H](O)C[C@H](C(=O)NCC(C)(C)C(N)=O)C(C)C)C(C)C)ccc1OC [Aliskiren Hemifumarate]         HEPG2        0.506
3  Cn1c(=O)c(F)c(Nc2ccc(I)cc2F)c2c(=O)n(C[C@@H](O)CO)cnc21         HEPG2         2.21
4         COc1ccc(NS(=O)(=O)c2ccc(N)cc2)nn1         HEPG2         0.55
5  CC(C)CC(=O)Nc1n[nH]c2c1CN(C(=O)C1CCN(C)CC1)C2(C)C         HEPG2         2.82
6  Cc1cc(C#N)cc(C)c1Oc1nc(Nc2ccc(C#N)cc2)nc(N)c1Br         HEPG2         2.06

Request: Item "COC(=O)[C@@H]1CC2=CC(=O)CC[C@]2(C)[C@@]23O[C@@H]2C[C@@]2(C)[C@@H](CC[C@@]24CCC(=O)O4)[C@H]13" with HEPG2 - Euclidean distance?
Response: 1.38

Request: Missing value: Euclidean distance, HEPG2, entry "Nc1ccccc1NC(=O)c1ccc(CNC(=O)OCc2cccnc2)cc1" . Fill in?
Response: 2.93

All figures here come from the supplement of paper PMC10127200.
